Assay: Solubility of compound 1 in the solvent under evaluation at 22° C. and 65° C. (crystallization study)
Format: physicochemical
Conditions: MIBK, 22 °C, organic solvent or mixture, thermodynamic from solid, solvent: MIBK; read-out: Solubility at 22° C.
Protocol: Crystalline compound 1 was evaluated. Crystallization study procedures were done based on the solubility of compound 1 in the solvent under evaluation as follows. The results are presented below in Table 10 where: * refers to compound 1 prepared as described above; and ** refers to compound 1 prepared as described above and further incubated at 100% relative humidity at 22° C. for 17 days.
testReadout: solubility

Name the reported solubility value associated with the compound Nc1ncc(-c2cc(N3C[C@@H]4C[C@H]3CO4)nc(N3CCC(F)(F)C3)n2)cc1OC(F)F
< 50 mg/mL
